experimental_system: JAK3 (Homo sapiens, UniProt P52333)
Sequence (P52333 whole entry, species assumed): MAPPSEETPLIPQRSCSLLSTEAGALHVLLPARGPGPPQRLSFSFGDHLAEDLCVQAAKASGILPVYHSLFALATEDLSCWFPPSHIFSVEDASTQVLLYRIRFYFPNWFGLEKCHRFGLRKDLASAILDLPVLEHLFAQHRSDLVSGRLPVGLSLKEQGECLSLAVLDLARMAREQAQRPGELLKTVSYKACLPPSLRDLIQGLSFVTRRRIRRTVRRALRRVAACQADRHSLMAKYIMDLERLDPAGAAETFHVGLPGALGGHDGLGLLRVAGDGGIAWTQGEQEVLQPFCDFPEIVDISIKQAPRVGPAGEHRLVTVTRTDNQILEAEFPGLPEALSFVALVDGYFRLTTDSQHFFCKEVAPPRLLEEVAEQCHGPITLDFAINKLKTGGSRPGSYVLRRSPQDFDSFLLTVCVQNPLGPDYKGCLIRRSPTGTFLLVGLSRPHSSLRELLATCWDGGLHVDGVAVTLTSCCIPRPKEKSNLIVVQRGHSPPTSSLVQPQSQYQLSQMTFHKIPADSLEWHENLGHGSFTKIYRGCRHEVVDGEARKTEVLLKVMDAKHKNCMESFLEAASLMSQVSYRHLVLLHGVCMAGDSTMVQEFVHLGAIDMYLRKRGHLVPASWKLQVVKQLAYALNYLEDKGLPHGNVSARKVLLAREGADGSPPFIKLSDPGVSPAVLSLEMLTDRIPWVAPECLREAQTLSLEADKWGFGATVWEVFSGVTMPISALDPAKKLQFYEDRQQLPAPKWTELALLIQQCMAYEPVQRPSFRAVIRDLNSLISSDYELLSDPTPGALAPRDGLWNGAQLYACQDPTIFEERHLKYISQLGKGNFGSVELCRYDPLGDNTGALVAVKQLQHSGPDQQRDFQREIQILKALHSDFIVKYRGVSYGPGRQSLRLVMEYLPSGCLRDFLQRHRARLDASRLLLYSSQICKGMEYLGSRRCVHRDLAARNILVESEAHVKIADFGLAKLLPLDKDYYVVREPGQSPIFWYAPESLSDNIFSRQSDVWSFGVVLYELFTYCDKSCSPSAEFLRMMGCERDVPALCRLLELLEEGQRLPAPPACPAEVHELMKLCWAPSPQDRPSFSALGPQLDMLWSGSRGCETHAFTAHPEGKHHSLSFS
procedure_details: JAK 3 enzymatic inhibitory activity IC50 assay (Caliper conversion rate)
Type: biochemical
settings: Km ATP, 28° C., 1 hour; read-out: JAK 3 enzymatic inhibitory activity IC50
Listed next: entries and their corresponding IC50.

Check out these entries, answers already filled in.
CCS(=O)(=O)N1CC(CC#N)(n2cc(-c3nc(NC4CC4)nc4ccsc34)cn2)C1 [Compound T-28]	> 1000 nM
CCS(=O)(=O)N1CC(CC#N)(n2cc(-c3nc(Nc4ccc(F)cc4)nc4ccsc34)cn2)C1 [Compound T-24]	> 1000 nM
CC(C)(C)NS(=O)(=O)c1ccc(-c2nc(Nc3ccc(N4CCOCC4)cc3)nc3ccsc23)cc1 [Compound T-17]	> 1000 nM

For the next question, use this compound.
State its IC50 on JAK3 (Homo sapiens, UniProt P52333): C[C@H](O)Cn1cc(Nc2nc(-c3cnn(C4(CC#N)CN(S(C)(=O)=O)C4)c3)c3sccc3n2)cn1 [Compound T-87]
< 50 nM
